These data points were gathered from patent US20180030149A1.

# tested system: T1, recombinant human ErbB3 monomeric protein (cleaved rhErbB3) (human, UniProt P21860 20-643, limits assumed)
# T1 construct: Monomer made by protease cleavage of the Fc fusion; also called Monomeric ErbB3
# test details: SPR Biacore 37 C; supernatant antibody captured on anti-human Fc, cleaved rhErbB3 injected
Would you mind telling me the reported koff of each entry?

Sh24C05-22 (antibody, human IgG1, kappa, V domains shown, Humanized, human IgG1/kappa) VH: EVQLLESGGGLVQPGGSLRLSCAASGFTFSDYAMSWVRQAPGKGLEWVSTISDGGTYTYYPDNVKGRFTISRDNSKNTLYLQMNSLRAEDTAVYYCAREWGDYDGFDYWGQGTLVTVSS VL: DIQMTQSPSSLSASVGDRVTITCRASQEISGYLSWFQQKPGKAPKSLIYAASTLDSGVPSRFSGSGSGTDFTLTISSLQPEDFATYYCLQYDSYPYTFGQGTKLEIKR : 0.000601 s⁻¹
Sh24C05-40 (antibody, human IgG1, kappa, V domains shown, Humanized, human IgG1/kappa) VH: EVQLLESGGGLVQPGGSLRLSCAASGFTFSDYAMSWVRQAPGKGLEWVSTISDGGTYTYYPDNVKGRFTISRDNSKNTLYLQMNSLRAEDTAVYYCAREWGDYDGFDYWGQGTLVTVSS VL: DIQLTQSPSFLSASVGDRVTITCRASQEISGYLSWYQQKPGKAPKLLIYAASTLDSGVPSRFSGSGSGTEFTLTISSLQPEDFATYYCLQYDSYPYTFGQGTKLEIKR : 0.0106 s⁻¹

Below: the item to evaluate.
Ask | Report koff for Sh24C05-17 (antibody, human IgG1, kappa, V domains shown, Humanized, human IgG1/kappa) VH: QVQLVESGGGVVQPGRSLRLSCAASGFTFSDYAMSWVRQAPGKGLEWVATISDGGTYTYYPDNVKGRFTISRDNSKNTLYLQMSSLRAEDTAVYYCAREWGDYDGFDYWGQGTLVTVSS VL: DIQMTQSPSSLSASVGDRVTITCRASQEISGYLSWLQQKPGGAIKRLIYAASTLDSGVPSRFSGSGSGSDYTLTISSLQPEDFATYYCLQYDSYPYTFGQGTKLEIKR please.
Reply | 0.000417 s⁻¹
